Kindly find below IC50 information for KRas (Homo sapiens (Human), UniProt P01116) taken from the literature.
readout_label: IC50 (nM)

Solved cases below.
CC1(C)Cc2cc3[nH]ncc3c(-c3nccc4c3sc3nc(OC[C@@]56CCCN5C[C@H](F)C6)nc(N5CCOC[C@@](C)(O)C5)c34)c2C1 :: 473
O=C1CC(CNc2nc(OCC34CCCN3CCC4)nc3c(F)c(-c4cccc5cccc(F)c45)ncc23)CN1 (stereo not drawn) :: 5840
CN(Cc1c[nH]c2ncccc12)c1nc(OCC23CCCN2CCC3)nc2c(F)c(-c3cccc4cccc(F)c34)ncc12 :: 5600
Cc1cc(N)nc(-c2c(Cl)c3c4c(nc(OCC5CCOCC5)nc4c2F)N([C@H](C)c2cccnc2N)CCO3)c1C(F)(F)F (atropisomer, axis not shown) :: 2.3
Cc1cc(N)nc(-c2cc3nc(OCC4(N(C)C)COC4)nc4c3c(c2Cl)OCCN4Cc2cccnc2N)c1C(F)(F)F :: 310

[a] Cc1cc(N)nc(-c2cc3ncnc4c3c(c2Cl)OCCN4Cc2cccc(=O)[nH]2)c1C(F)(F)F
[b] Cc1cc(N)nc(-c2cc3ncnc4c3c(c2Cl)OCCN4Cc2cc(F)cnc2N)c1C(F)(F)F
Q) Pick one: a or b . Which has the bigger IC50 number? Choose, then provide that item's label.
A) a

[a] Fc1c(-c2cccc3cccc(F)c23)ncc2c(NCCc3cnoc3)nc(OCC34CCCN3CCC4)nc12
[b] CCc1cccc2cc3[nH]ncc3c(-c3ncc4c(N5CCC[C@@](C)(O)C5)nc(OC[C@@]56CCCN5C[C@H](F)C6)nc4c3F)c12
[c] Cc1cc(N)nc(-c2cc3ncnc4c3c(c2Cl)OCCN4CCC#N)c1C(F)(F)F
[d] CCc1cccc2cccc(-c3ncc4c(N5CCCC(c6nc[nH]n6)C5)nc(OCC56CCCN5CCC6)nc4c3F)c12 (stereo not drawn)
[e] CCc1c(F)ccc2cc(O)cc(-c3ncc4c(N5CCCCC5)nc(OC[C@@H]5C[C@@H](O)CN5C)nc4c3F)c12
Q) Sort (5 compounds) by IC50: min first. Rank them, then answer with their labels in that order.
A) b, e, d, a, c
(b: 10 nM, e: 22 nM, d: 2850 nM, a: 15000 nM, c: 36000 nM)

[a] N#Cc1cccc2cccc(-c3ncc4c(N5CCCC6(C5)NC(=O)NC6=O)nc(OCC56CCCN5CCC6)nc4c3F)c12 (stereo not drawn)
[b] Cc1cc2[nH]ncc2c(-c2nccc3c2sc2nc(OC[C@@]45CCCN4C[C@H](F)C5)nc(N4CCOCC(C)C4)c23)c1C(F)(F)F (stereo partly drawn)
Q) Parameter metric = IC50. Return the lower-valued option from a and b . State the label of the item chosen.
A) b
(b: 2190 nM, a: 4070 nM)

[1] C[C@@]1(O)COCCN(c2nc(OC[C@@]34CCCN3C[C@H](F)C4)nc3sc4c(-c5c(C6(F)CC6)c(C6CC6)cc6[nH]ncc56)nccc4c23)C1
[2] Fc1c(-c2cccc3cccc(F)c23)ncc2c(Nc3ccc4cn[nH]c4c3)nc(OCC34CCCN3CCC4)nc12
[3] NS(=O)(=O)CC1CCCN(c2nc(OCC34CCCN3CCC4)nc3c(F)c(-c4cccc5cccc(CF)c45)ncc23)C1 (stereo not drawn)
[4] OCC1COCCN(c2nc(OCC34CCCN3CCC4)nc3c(F)c(-c4cccc5cccc(F)c45)ncc23)C1 (stereo not drawn)
[5] CCc1c(F)ccc2cc(O)cc(-c3ncc4c(NCc5n[nH]cc5C)nc(OC[C@@]56CCCN5C[C@H](F)C6)nc4c3F)c12
Q) Put the compounds in ascending order of IC50. Answer by naming the labels in the order asked.
A) 5, 1, 3, 4, 2
(5: 20 nM, 1: 29.3 nM, 3: 693 nM, 4: 1200 nM, 2: 28900 nM)
